Measured values drawn from ChEMBL document CHEMBL1240409 for this set.

Tested on: DU-145
Assay: Growth inhibition of human DU145 cells after 96 hrs by trypan blue exclusion assay
Format: functional
Conditions: DU-145, 96 h
endpoint: GI50 (µM)
The figure you give is taken to be in µM; do not add the unit.

Worked set:
CCOc1ccc(/C=C(\C(=O)c2ccc(Br)cc2)S(=O)(=O)c2ccc(Br)cc2)c(OCC)c1
10
COc1ccccc1/C=C(/SCc1ccc(Cl)c(Cl)c1)C(=O)c1ccc(Cl)cc1
10
Cc1ccc(CS(=O)(=O)/C(=C/c2ccc(N(C)C)cc2)C(=O)c2ccc(Cl)cc2)cc1
50
O=C(O)c1ccc(C(=O)/C(=C\c2ccc(Cl)c([N+](=O)[O-])c2)SCc2ccccc2F)cc1
1
O=C(/C(=C\c1cc(Cl)c(O)c(Cl)c1)SCc1ccc(Br)cc1)c1ccc(Br)cc1
10
Cc1ccc(S(=O)(=O)/C(=C/c2ccc(Oc3ccccc3)cc2)C(=O)c2ccc(Cl)cc2)cc1
1
O=C(/C(=C\c1ccc(O)c([N+](=O)[O-])c1)S(=O)(=O)c1ccc(I)cc1)c1ccc(I)cc1
25
COc1ccc(/C=C(/Sc2ccc(C)cc2)C(=O)c2ccc(Cl)cc2)cc1
1

stdin: Could you please provide reported GI50 for O=C(/C(=C\c1ccc(O)c([N+](=O)[O-])c1)S(=O)(=O)c1ccc(I)cc1)c1ccc(Br)cc1 ? Thanks!
stdout: 25

stdin: Could you please provide reported GI50 for Cc1cc(C)cc(/C=C(/SCc2ccc(Br)cc2)C(=O)c2ccccc2Cl)c1 ? Thanks!
stdout: 10

stdin: Could you please provide reported GI50 for COc1ccc(/C=C(/SCc2ccc(F)cc2)C(=O)c2ccc(C(=O)O)cc2)cc1O ? Thanks!
stdout: 10

stdin: Could you please provide reported GI50 for O=C(/C(=C\c1c(O)cc(O)cc1O)SCc1ccc(Cl)c(Cl)c1)c1ccc(Cl)cc1 ? Thanks!
stdout: 25

stdin: Could you please provide reported GI50 for Cc1ccc(S/C(=C/c2cc(C)cc(C)c2)C(=O)c2ccc(Cl)cc2)cc1 ? Thanks!
stdout: 50

stdin: Could you please provide reported GI50 for CN(C)c1ccc(/C=C(/SCc2ccc(F)cc2)C(=O)c2ccc(C(=O)O)cc2)cc1 ? Thanks!
stdout: 10

stdin: Could you please provide reported GI50 for COc1ccccc1/C=C(/SCc1ccccc1F)C(=O)c1ccc(Cl)cc1 ? Thanks!
stdout: 10

stdin: Could you please provide reported GI50 for O=C(/C(=C\c1ccccc1OCc1ccccc1)Sc1ccc(F)cc1)c1ccc(Cl)cc1 ? Thanks!
stdout: 1

stdin: Could you please provide reported GI50 for O=C(/C(=C\c1ccc(O)c([N+](=O)[O-])c1)S(=O)(=O)Cc1ccccc1Cl)c1ccc(Cl)cc1 ? Thanks!
stdout: 10

stdin: Could you please provide reported GI50 for Cc1ccc(S/C(=C/c2ccc(F)c(C)c2)C(=O)c2ccc(Br)cc2)cc1 ? Thanks!
stdout: 25

stdin: Could you please provide reported GI50 for COc1ccc(/C=C(\C(=O)c2ccc(Cl)cc2)S(=O)(=O)c2ccc(C)cc2)cc1O ? Thanks!
stdout: 1

* * *

Test system: DU-145
Assay: Growth inhibition of human DU145 cells after 96 hrs by trypan blue exclusion assay
Assay type: functional
Details: DU-145, 96 h
Measured log10 of GI50 accompanies every entry in the list below.
Hi team, quick reminder: these entries are log10 of GI50 (µM).

stdin: Could you please provide reported log10 of GI50 for CCOc1ccc(/C=C(\C(=O)c2ccc(Cl)cc2)S(=O)(=O)Cc2ccccc2Cl)cc1OC ? Thanks!
stdout: 1.00

stdin: Could you please provide reported log10 of GI50 for CC(=O)Nc1ccc(/C=C(/SCc2ccc(F)cc2)C(=O)c2ccc(C(=O)O)cc2)cc1[N+](=O)[O-] ? Thanks!
stdout: 1.00

stdin: Could you please provide reported log10 of GI50 for O=C(/C(=C\c1ccc(F)cc1F)S(=O)(=O)c1ccc(Cl)cc1)c1ccc(Br)cc1 ? Thanks!
stdout: 1.40

stdin: Could you please provide reported log10 of GI50 for Cc1ccc(/C=C(\C(=O)c2ccc(Cl)cc2)S(=O)(=O)Cc2ccc(Cl)cc2)s1 ? Thanks!
stdout: 0.00

stdin: Could you please provide reported log10 of GI50 for COc1ccccc1/C=C(/Sc1ccc(C)cc1)C(=O)c1ccc(Cl)cc1 ? Thanks!
stdout: 1.40

stdin: Could you please provide reported log10 of GI50 for COc1ccc(/C=C(/Sc2ccc(C)cc2)C(=O)c2ccc(Cl)cc2)cc1O ? Thanks!
stdout: 0.00

stdin: Could you please provide reported log10 of GI50 for Cc1ccsc1/C=C(/SCc1ccccc1F)C(=O)c1ccc(Cl)cc1 ? Thanks!
stdout: 1.70

stdin: Could you please provide reported log10 of GI50 for CN(C)c1ccc(/C=C(/SCc2ccc(Cl)cc2)C(=O)c2ccc(Br)cc2)cc1 ? Thanks!
stdout: 1.00

stdin: Could you please provide reported log10 of GI50 for Cc1ccc(S/C(=C/c2ccc(Oc3ccccc3)cc2)C(=O)c2ccc(Br)cc2)cc1 ? Thanks!
stdout: 0.00
